B1: P2RY14 (parent)
chain: KKIFKSHLKSSRNSTSVKKKSSRN

Variants of: B1
Assay: protein stability index of a GFP-peptide fusion (GPS, HEK-293T) (PSI 1-6); higher = more stable;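 note: lentivirally expressed fusions sorted by FACS into six bins by GFP to DsRed ratio, PSI derived from sequencing read proportions per bin multiplied by bin number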
Conditions: c terminus: a fixed tail appended

| mutation annotation | protein stability index |
| --- | --- |
| K5V | 3.93 |
| K19N | 3.98 |
| H7I | 3.72 |
| L8C | 4.39 |
| K20Y | 3.95 |
| H7F | 3.76 |
| R23A | 4.05 |
| H7L | 3.7 |
| N24T | 4.28 |
| V17H | 4.1 |
| K1E | 3.97 |
| R23C | 3.91 |
| N13R | 4.38 |
| N13V | 4.22 |
| H7C | 4.05 |
| S14C | 4.31 |
| S16A | 4.16 |
| L8S | 5.01 |
